# assayed_target: DGI-2 (Homo sapiens, UniProt Q15004)
# Construct: encompassed the entire DGI-2 open reading frame (ORF); His-tag of vector pIVEX2.3-MCS (inferred from the vector and from the reverse primer lacking a stop codon); made in house; host or cells: cell-free in vitro translation (Rapid Translation System RTS, Roche; E. coli lysate)
# Sequence (Q15004 1-111): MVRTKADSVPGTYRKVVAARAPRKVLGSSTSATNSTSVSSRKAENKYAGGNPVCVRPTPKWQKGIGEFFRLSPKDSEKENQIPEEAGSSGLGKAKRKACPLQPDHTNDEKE
# method_summary: ELISA analysis of phage on DGI-2 polypeptide (specific binding)
# experimental_conditions: binding to DGI-2 polypeptide (specific binding); phage ELISA units read at 405 nm
assay_readout: DGI-2 (OD)

Completed entries (count: 2):
substance	units	DGI-2 (OD)
ERVSKCVGRGSGRSVGQFGG (DGI-2-20F-PP-F1; listed as Escherichia coli)	OD	3.0
VQSGRDLGGLLRGGTGTEASP (DGI-2-20F-PP-D3; listed as Escherichia coli)	OD	2.2

P: DSEA*RVWYSGFLRRLGHMC (DSEARVWYSGFLRRLGHMC; DGI-2-20F-PP-F7; listed as Escherichia coli)
Q: FRMWVQSCFWGQPGTGCGEG (DGI-2-20R-3-D2; listed as Escherichia coli)
Higher DGI-2 (OD) between P and Q ? Lab note: record the label of whichever item you select.
Q
(Q: 7.9 OD, P: 2.1 OD)

====

# assayed_target: DGI-2 (Homo sapiens, UniProt Q15004)
# Construct: encompassed the entire DGI-2 open reading frame (ORF); His-tag of vector pIVEX2.3-MCS (inferred from the vector and from the reverse primer lacking a stop codon); made in house; host or cells: cell-free in vitro translation (Rapid Translation System RTS, Roche; E. coli lysate)
# Sequence (Q15004 1-111): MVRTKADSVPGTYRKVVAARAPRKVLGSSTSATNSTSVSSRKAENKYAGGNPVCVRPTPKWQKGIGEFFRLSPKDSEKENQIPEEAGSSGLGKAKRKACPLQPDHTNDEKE
# method_summary: ELISA analysis of phage on DGI-2 polypeptide (specific binding)
# experimental_conditions: binding to DGI-2 polypeptide (specific binding); phage ELISA units read at 405 nm
assay_readout: DGI-2 (OD)

Completed entries (count: 2):
polymer_sequence	units	result_value
MGSLGPFGNTNSLASGIGSVRNRPLLPLHGSP [DGI-2-40F-3-D72]	OD	3.1
SLSLYWDAQVGCEVFWGYCV (DGI-2-20R-3-C10; listed as Escherichia coli)	OD	2.2

A: MFQDVACDLWHSVRCLRRDV (DGI-2-20R-3-B3; listed as Escherichia coli)
B: FSSVLGLLDRRGVPVVVGED (DGI-2-20F-3-C3; listed as Escherichia coli)
C: DRSRAPLCADKSGRWQRYRR (DGI-2-20F-PP-C10; listed as Escherichia coli)
Put the items in sequence by DGI-2 (OD), from largest down. // format: requested-order list of labels
A, C, B
(A: 4.9 OD, C: 2.7 OD, B: 1.1 OD)

====

# Tested on: lactate dehydrogenase (LDH)
# method_summary: ELISA analysis of phage on LDH (irrelevant, non-specific target)
# Format: binding
# experimental_conditions: peptide binding to LDH polypeptide (non-specific binding); phage ELISA units read at 405 nm
assay_readout: LDH (OD)

polymer_sequence	units	LDH (OD)
DYKGRTMTSPIMSALPVYDRLHGIGSRGQNMD (DYKGRTMTSPIMSALPVYDRLHGAIGSRGQNMD; DGI-2-20C-3-B3; listed as Escherichia coli)	OD	0.9
MGADTCMGGKMPFDQMFGAV (DGI-2-20F-PP-E10; listed as Escherichia coli)	OD	1.2
WWERFVWGRPVDDGVVVMAT (DGI-2-20R-3-B1; listed as Escherichia coli)	OD	1.0
VQSGRDLGGLLRGGTGTEASP (DGI-2-20F-PP-D3; listed as Escherichia coli)	OD	0.9
CAYRWGLFRGPGRVDYDLQVVGIMMWPGPIPDRSSRGSVA (DGI-2-40F-3-A7; listed as Escherichia coli)	OD	0.8
MSTLQGPGHLFQMLRRASLG (DGI-2-20R-4-H12; listed as Escherichia coli)	OD	1.3
GLEPVPFQTDKRIAMGWTREWLVNGYGAAHRRDARMQSGH (DGI-2-40F-3-D6; listed as Escherichia coli)	OD	1.0

Each recorded value in this set is attributed to patent US7056679B2.
